assayed-target: Muscarinic acetylcholine receptor M1 (Homo sapiens) (UniProt P11229)
Sequence (P11229 whole entry, looked up): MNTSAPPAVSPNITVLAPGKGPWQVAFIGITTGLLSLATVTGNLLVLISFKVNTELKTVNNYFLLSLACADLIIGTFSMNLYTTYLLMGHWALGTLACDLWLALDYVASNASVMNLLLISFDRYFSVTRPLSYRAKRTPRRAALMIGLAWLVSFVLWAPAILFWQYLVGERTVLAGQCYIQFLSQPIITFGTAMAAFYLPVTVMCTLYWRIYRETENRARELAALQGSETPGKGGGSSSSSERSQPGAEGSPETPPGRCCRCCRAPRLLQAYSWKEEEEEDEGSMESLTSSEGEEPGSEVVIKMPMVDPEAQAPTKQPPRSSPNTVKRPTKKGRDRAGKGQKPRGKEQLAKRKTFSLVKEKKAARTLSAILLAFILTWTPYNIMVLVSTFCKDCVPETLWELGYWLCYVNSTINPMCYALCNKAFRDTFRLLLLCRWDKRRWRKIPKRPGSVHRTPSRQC
test-description: Cholinergic receptor muscarinic 1 (CHRM1) small molecule antagonists, cell-based qHTS assay (AID 1963588); note: nearly all actives have a fitted effect of over 40% in size
run-conditions: CHRM1-CHO antagonist mode, calcium flux fluorescence; series mostly up to 61.5 µM
Results filed as inconclusive are left out. The source made the active and inactive calls. Calls come from the whole dose curve.
property-name: activity, negative = inhibition

>>> print(df.to_string())
                                    molecule  observed
 0  O=[N+]([O-])c1ccc(Oc2ccc([N+](=O)[O-])cc2)cc1  inactive
 1         CCCCC(CC)COCCO (stereo not given)  inactive
 2  COC(c1ccccc1)(c1ccccc1)[C@H](Oc1nc(C)cc(C)n1)C(=O)O  inactive
 3                             C=CC(=O)CCCCC  inactive
 4               CCCCCCCCCCCC(=O)N(C)CC(=O)O  inactive
 5  CC1(C)[C@H](C(=O)OCc2cccc(Oc3ccccc3)c2)[C@@H]1C=C(Cl)Cl  inactive
 6                           Clc1nc2ccccc2s1  inactive
 7  BrC1CCC(Br)C(Br)CCC(Br)C(Br)CCC1Br (stereo not given)  inactive
 8     CCC(OCCCOC)OC(C)=O (stereo not given)  inactive
 9                          CC(C)CC(O)CC(C)C  inactive
10                       FC(F)(F)C(Cl)(Cl)Cl  inactive
11                              CCC(N)(CO)CO  inactive
12   O=C1OC(=O)C2CC=CCC12 (stereo not given)  inactive
13             O=[N+]([O-])c1ccccc1Nc1ccccc1  inactive
14               NS(=O)(=O)c1ccccc1OC(F)(F)F  inactive
15                                 CCCCOCCCC  inactive
16                           CC(C)CCOCCC(C)C  inactive
17         CCCN1CCCC[C@H]1C(=O)Nc1c(C)cccc1C  inactive
18                           Cc1cc(C)cc(O)c1  inactive
19  CCCCCCCC(=O)[O-].CCCCCCCC(=O)[O-].[Zn+2]  inactive
20          CCCC(C)C(O)CC (stereo not given)  inactive
21                          COc1ccc(N)c(C)c1  inactive
22        CCO/C([O-])=N/c1c[n+](N2CCOCC2)no1  inactive
23                                 CNC(=O)NC  inactive
24  C=C[C@H]1CN2CC[C@H]1C[C@H]2[C@H](O)c1ccnc2ccc(OC)cc12  inactive
25                        OCCOc1ccc(OCCO)cc1  inactive
26  CC(=O)OCC(=O)Nc1cc(C#N)cc(NC(=O)COC(C)=O)c1Cl  inactive
27                 c1ccc(Nc2cccc3ccccc23)cc1  inactive
28     CC1=CC(C)C(C=O)CC1 (stereo not given)  inactive
29                      FC(F)(F)c1cccc(Cl)c1  inactive
